Target: nm-HO (Neisseria meningitidis, UniProt Q9AH50)
Sequence (Q9AH50 1-209): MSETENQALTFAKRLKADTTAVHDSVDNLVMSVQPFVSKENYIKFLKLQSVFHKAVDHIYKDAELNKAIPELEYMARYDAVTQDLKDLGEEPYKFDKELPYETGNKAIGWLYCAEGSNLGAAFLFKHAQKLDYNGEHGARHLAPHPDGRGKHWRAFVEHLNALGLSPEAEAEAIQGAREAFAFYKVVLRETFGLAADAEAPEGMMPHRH
Assay: biochemical
Type: binding
Details: Table 4; target not named, values match nm-HO of Table 3A; read-out: Kd
pKd: −log10 of the molar value.

>  <STRUCTURE>
CN(C)c1ccc(/C=N/NC(=N)N)cc1

>  <pKd>
4.64

$$$$

---

Target: nm-HO (Neisseria meningitidis, UniProt Q9AH50)
Experiment: biochemical
Assay type: binding
Settings: Table 3A; read-out: Fluorescence nm-HO Kd
pKd: −log10 of the molar value.

>  <STRUCTURE>
CN(C)c1ccc(/C=N/NC(=N)N)cc1

>  <pKd>
4.64

$$$$
